The measured values listed here are drawn from ChEMBL document CHEMBL3616448.

assay: Half life in mouse liver microsomes; type: ADME
assay.metric: half-life

Below: 2 compounds and their reported half-life.
compound: CNC(=O)c1nc(-c2cccs2)[nH]c(=O)c1O
observed.measurement: > 6.67 h
//
compound: NC(=O)c1nc(-c2cccs2)nc(O)c1O
observed.measurement: 2.5 h

Pending compound:
For the compound CCC(C)NC(=O)c1nc(-c2cccs2)[nH]c(=O)c1O (stereo not drawn) , what half-life is on record?
> 6.67 h

###

assay: Half life in human liver microsomes; format: ADME
assay.metric: half-life

Below: 2 compounds and their reported half-life.
compound: CNC(=O)c1nc(-c2cccs2)[nH]c(=O)c1O
observed.measurement: 181 min
//
compound: CCC(C)NC(=O)c1nc(-c2cccs2)[nH]c(=O)c1O (stereo not drawn)
observed.measurement: > 400 min

For the compound `NC(=O)c1nc(-c2cccs2)nc(O)c1O` , what half-life is on record?
139 min
